# maps each entry to its IC50
- SYSTEM_UNDER_TEST: Tyrosine-protein phosphatase non-receptor type 1 (Homo sapiens)
- Sequence (P18031 whole entry): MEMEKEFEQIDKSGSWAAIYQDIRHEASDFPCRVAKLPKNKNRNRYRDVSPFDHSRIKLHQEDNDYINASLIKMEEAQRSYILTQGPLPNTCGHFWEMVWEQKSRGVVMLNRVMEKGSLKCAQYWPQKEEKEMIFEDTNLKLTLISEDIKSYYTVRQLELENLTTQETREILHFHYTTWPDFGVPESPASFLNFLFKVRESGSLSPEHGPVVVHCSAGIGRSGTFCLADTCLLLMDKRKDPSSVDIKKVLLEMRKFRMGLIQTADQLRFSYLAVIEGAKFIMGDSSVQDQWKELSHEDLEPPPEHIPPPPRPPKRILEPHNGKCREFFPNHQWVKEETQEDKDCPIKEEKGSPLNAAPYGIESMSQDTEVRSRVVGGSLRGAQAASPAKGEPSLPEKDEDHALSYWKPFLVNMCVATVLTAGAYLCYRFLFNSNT
MEASUREMENT_KIND: IC50 (µM)

{"columns": ["TEST_SMILES", "SYSTEM_UNDER_TEST", "TEST_RESULT"],
 "data": [
  ["C[C@@H]1Cc2c3c(cc(O)c2C(=O)O1)O[C@@]1(C)CC[C@H]2C(C)(C)C(=O)C=C[C@]2(C)[C@@H]1C3", "Tyrosine-protein phosphatase non-receptor type 1 (Homo sapiens)", 8.4],
  ["C[C@@H]1Cc2c3c(cc(O)c2C(=O)O1)O[C@@]1(C)[C@@H](O)C[C@H]2C(C)(C)C(=O)CC[C@]2(C)[C@@H]1C3", "Tyrosine-protein phosphatase non-receptor type 1 (Homo sapiens)", 14.9]
]}
